Cited source: patent US12180207B2

# system_under_test: HEK-293 cells transfected with dox-inducible human wild type FGFR3 (Homo sapiens (Human))
# Sequence (P22607 23-806): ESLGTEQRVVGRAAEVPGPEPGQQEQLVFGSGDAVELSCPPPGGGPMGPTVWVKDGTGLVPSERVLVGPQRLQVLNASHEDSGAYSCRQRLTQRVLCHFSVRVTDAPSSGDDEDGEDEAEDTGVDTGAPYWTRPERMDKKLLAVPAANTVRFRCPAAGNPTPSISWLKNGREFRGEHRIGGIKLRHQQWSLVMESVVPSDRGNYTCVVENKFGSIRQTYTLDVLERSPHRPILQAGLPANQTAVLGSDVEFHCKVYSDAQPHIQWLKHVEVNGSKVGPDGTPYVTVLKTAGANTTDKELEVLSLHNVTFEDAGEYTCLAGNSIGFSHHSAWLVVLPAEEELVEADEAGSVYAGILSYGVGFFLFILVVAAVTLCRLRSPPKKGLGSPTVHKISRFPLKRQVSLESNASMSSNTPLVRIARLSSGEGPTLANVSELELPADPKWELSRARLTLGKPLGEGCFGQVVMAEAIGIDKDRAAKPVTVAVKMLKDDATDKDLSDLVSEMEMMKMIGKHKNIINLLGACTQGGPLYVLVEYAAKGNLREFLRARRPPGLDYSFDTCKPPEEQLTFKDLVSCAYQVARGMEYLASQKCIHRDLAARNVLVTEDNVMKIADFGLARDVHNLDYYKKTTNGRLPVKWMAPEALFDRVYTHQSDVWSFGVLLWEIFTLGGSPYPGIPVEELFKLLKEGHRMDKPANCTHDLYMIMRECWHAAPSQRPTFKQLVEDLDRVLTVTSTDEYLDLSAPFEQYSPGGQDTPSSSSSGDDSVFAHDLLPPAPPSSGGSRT
# test_details: FGFR3 pERK cell assay
# Type: cell-based
# measurement_conditions: HEK-293 dox-inducible FGFR3, 1 hour compound, 100 ng/ml FGF-acidic; maximum concentration 5 μM
test_readout: log10 IC50 (log10 of the value in nM)

In [3]: df
Out[3]:
                                    compound  test_readout  value_observed
 0  COc1cc(-c2cnn(C3CCN(CC4CN(C(=O)/C=C/CN(C)C)C4)CC3)c2)cn2ncc(C#N)c12    log10 IC50            1.98
 1  C=CC(=O)N1CC(C(=O)N2CCC(n3cc(-c4cc(OC)c5c(Cl)cnn5c4)cn3)CC2)C1    log10 IC50            1.72
 2  COc1cc(-c2cnn(C3CCN(CC4(OC)CN(C(=O)/C=C/CN(C)C)C4)CC3)c2C)cn2ncc(C#N)c12    log10 IC50            1.48
 3  C=CC(=O)N1CC(CN2C[C@H]3C[C@@H]2CN3c2ccc(-c3cc(OC)c4c(C#N)cnn4c3)cn2)C1    log10 IC50            1.67
 4  COc1cc(-c2cnn(C3CCN(C(=O)C4(OC)CN(C(=O)/C=C/CN(C)C)C4)CC3)c2C)cn2ncc(Cl)c12    log10 IC50            1.70
 5  COc1cc(-c2cnn(C3CCN(C(=O)C4CN(C(=O)/C=C/CO)C4)CC3)c2)cn2ncc(C#N)c12    log10 IC50            3.59
 6  C=CC(=O)N1CC(CN2CCC(n3ncc(-c4cc(OC)c5c(Cl)cnn5c4)c3C)CC2)C1(C)C (centres unmarked)    log10 IC50            2.15
 7  C=CC(=O)N1CC(CN2CCC(n3ncc(-c4cc(OC)c5c(Cl)cnn5c4)c3C)CC2)(OC)C1    log10 IC50            1.70
 8  COc1cc(-c2ccc(N3CCN(C(=O)C4(F)CN(C(=O)/C=C/CN(C)C)C4)CC3)nc2C)cn2ncc(C#N)c12    log10 IC50            2.00
 9  COc1cc(-c2cnn(C3CCN(C(=O)C4(F)CN(C(=O)/C=C/CN(C)C)C4)CC3)c2C)cn2ncc(C#N)c12    log10 IC50            1.40
10  C=CC(=O)N1CC(C(=O)N2CCC(n3cc(-c4cc(OC)c5c(C#N)cnn5c4)c(C)n3)CC2)C1    log10 IC50            2.65
11  C=CC(=O)N1CC(C(=O)N2CCC(n3cc(-c4cc(OC)c5c(C#N)cnn5c4)cn3)CC2)C1    log10 IC50            1.63
12  C=CC(=O)N1CCC(C(=O)N2CCC(n3ncc(-c4cc(OC)c5c(C#N)cnn5c4)c3C)CC2)CC1    log10 IC50            2.93
13  COc1cc(-c2cnc(N3CCN(C(=O)C4(F)CN(C(=O)/C=C/CN(C)C)C4)CC3)cc2C)cn2ncc(C#N)c12    log10 IC50            2.24

###

dephosphorylated FGFR2 (Homo sapiens (Human), UniProt P21802) data, read-out IC50
Sequence (P21802 22-821): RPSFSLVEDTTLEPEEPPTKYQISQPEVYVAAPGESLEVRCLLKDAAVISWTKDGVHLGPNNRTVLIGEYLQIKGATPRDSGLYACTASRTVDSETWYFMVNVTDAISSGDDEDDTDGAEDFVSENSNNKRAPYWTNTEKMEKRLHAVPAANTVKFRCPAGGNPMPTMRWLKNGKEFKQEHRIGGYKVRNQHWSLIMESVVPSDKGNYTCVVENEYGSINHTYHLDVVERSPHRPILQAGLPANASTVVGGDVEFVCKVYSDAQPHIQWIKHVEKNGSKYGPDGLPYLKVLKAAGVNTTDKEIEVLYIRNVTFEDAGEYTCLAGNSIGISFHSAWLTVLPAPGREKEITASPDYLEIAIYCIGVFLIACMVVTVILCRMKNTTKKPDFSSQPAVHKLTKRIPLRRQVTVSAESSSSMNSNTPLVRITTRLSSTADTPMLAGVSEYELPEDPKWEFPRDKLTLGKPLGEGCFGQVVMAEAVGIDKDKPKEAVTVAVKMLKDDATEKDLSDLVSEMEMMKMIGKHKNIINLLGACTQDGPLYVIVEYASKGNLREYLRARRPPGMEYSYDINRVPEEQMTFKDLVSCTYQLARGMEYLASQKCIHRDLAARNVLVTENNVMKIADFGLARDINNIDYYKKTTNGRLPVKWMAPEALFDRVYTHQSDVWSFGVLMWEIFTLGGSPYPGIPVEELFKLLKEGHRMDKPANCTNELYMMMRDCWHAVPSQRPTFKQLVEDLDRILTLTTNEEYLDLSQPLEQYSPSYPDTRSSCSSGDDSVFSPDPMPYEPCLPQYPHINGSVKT
test_readout: IC50 (nM)

In [3]: df
Out[3]:
                                   molecule  test_readout  unit_symbol  value_observed
0  COc1cc(-c2cnn(C3CCN(C(=O)C4CN(C(=O)/C=C/CCl)C4)CC3)c2)cn2ncc(C#N)c12          IC50           nM              12
1  COc1cc(-c2cnn(C3CCN(C(=O)C4CN(C(=O)/C=C/CN5CC[C@H](F)C5)C4)CC3)c2)cn2ncc(C#N)c12          IC50           nM              15
2  COc1cc(-c2cnn(C3CCN(C(=O)C4CN(C(=O)/C=C/CO)C4)CC3)c2)cn2ncc(C#N)c12          IC50           nM              18
3  C=CC(=O)N1CC(CN2CCC(n3ncc(-c4cc(OC)c5c(C#N)cnn5c4)c3C)CC2)C1(C)C (stereo not shown)          IC50           nM              38
4  CC#CC(=O)N1CC(F)(C(=O)N2CCC(n3ncc(-c4cc(OC)c5c(C#N)cnn5c4)c3C)CC2)C1          IC50           nM              26
5  COc1cc(-c2cnn(C3CCN(C(=O)C4(C)CN(C(=O)/C=C/CN(C)C)C4)CC3)c2C)cn2ncc(C#N)c12          IC50           nM               6
6  C=CC(=O)N1CC(C(=O)N2C3CCC2CN(c2ccc(-c4cc(OC)c5c(C#N)cnn5c4)cn2)C3)C1          IC50           nM              14

###

# system_under_test: HEK-293 cells transfected with dox-inducible human wild type FGFR3 (Homo sapiens (Human))
# test_details: FGFR3 pERK cell assay
# Format: cell-based
# measurement_conditions: HEK-293 dox-inducible FGFR3, 1 hour compound, 100 ng/ml FGF-acidic; maximum concentration 5 μM
pIC50: −log10 of the molar value.
test_readout: pIC50

In [3]: df
Out[3]:
                                   molecule  value_observed
0  CCc1c(-c2cc(OC)c3c(C#N)cnn3c2)cnn1C1CCN(C(=O)C2(F)CN(C(=O)/C=C/CN(C)C)C2)CC1 [Example 162]            6.45
1  COc1cc(-c2cnn(C3CCN(C(=O)C4CN(C(=O)/C=C/CF)C4)CC3)c2)cn2ncc(C#N)c12 [Example 142]            6.92
2  C=CC(=O)N1CC(C(=O)N2CCN(c3ncc(-c4cc(OC)c5c(C#N)cnn5c4)cc3C)CC2)C1 [Example 113]            6.73
3  C=CC(=O)N1CC(C(=O)N2CC3CCC(C2)N3c2ccc(-c3cc(OC)c4c(C#N)cnn4c3)cn2)C1 [Example 51]            7.21
4  COc1cc(-c2cnn(C3CCN(C(=O)C4(OC)CN(C(=O)/C=C/CN(C)C)C4)CC3)c2C)cn2ncc(C#N)c12 [Example 158]            6.97
5  C=CC(=O)N1CC(C(=O)N2C3CC2CN(c2ccc(-c4cc(OC)c5c(C#N)cnn5c4)cn2)C3)C1 [Example 52]            6.58
6  C=CC(=O)N1CC(CN2CCC(n3ncc(-c4cc(OC)c5c(C#N)cnn5c4)c3C)CC2)C1(C)C (stereo not shown) [Example 151]            6.23

###

# system_under_test: recombinant human FGFR1 catalytic domain (amino acids 308-731) (Homo sapiens (Human))
# Sequence (P11362 other isoform, or with tags, fused parts or gaps): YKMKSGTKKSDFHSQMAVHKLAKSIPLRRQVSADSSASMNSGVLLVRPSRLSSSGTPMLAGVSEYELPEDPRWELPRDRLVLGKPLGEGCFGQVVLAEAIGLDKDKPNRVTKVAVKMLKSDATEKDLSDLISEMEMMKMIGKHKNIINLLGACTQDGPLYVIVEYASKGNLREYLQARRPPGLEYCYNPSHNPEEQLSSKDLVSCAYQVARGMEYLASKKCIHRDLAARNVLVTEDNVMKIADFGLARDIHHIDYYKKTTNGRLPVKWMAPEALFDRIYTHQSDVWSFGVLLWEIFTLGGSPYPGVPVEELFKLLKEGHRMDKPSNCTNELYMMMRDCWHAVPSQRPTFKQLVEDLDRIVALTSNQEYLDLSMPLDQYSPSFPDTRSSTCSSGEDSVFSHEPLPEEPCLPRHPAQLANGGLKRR
# test_details: FGFR1 enzyme activity assay (LanthaScreen TR-FRET)
# measurement_conditions: 20 min incubation at 22° C., average of multiple determinations if made, read-out: FGFR1 Enz FRET IC50
Param label: returns T when IC50 < 20 nM, returns F otherwise, including exact equality.

In [3]: df
Out[3]:
                                    compound  assigned_label
 0  C=CC(=O)N1CC2(CC(C(=O)N3CCC(n4cc(-c5cc(OC)c6c(C#N)cnn6c5)cn4)CC3)C2)C1               F
 1  C=CC(=O)N1CCC(F)(C(=O)N2CCC(n3cc(-c4cc(OC)c5c(C#N)cnn5c4)cn3)CC2)CC1               T
 2  COc1cc(-c2cnn(C3CCN(C(=O)C4(F)CN(C(=O)/C=C/CN(C)C)C4)CC3)c2C)cn2ncc(Cl)c12               F
 3  COc1cc(-c2cnn(C3CCN(C(=O)C4CN(C(=O)C#CCO)C4)CC3)c2)cn2ncc(C#N)c12               T
 4  COc1cc(-c2cnn(C3CCN(C(=O)C4CN(C(=O)/C=C/CO)C4)CC3)c2)cn2ncc(C#N)c12               F
 5  C=CS(=O)(=O)N[C@H]1CC[C@H](C(=O)N2CCC(n3cc(-c4cc(OC)c5c(C#N)cnn5c4)cn3)CC2)C1               T
 6  CC#CC(=O)N1CC(F)(C(=O)N2CCC(n3ncc(-c4cc(OC)c5c(C#N)cnn5c4)c3C)CC2)C1               F
 7  C=CC(=O)N1CC(C)(C(=O)N2CCC(n3ncc(-c4cc(OC)c5c(C#N)cnn5c4)c3C)CC2)C1               F
 8  C=CC(=O)NC1C2CC1C2C(=O)N1CCC(n2cc(-c3cc(OC)c4c(C#N)cnn4c3)cn2)CC1 (centres unmarked)               T
 9  C=CC(=O)N1CC(C)(C(=O)N2CCC(n3cc(-c4cc(OC)c5c(C#N)cnn5c4)cn3)CC2)C1               T
10  C=CC(=O)N[C@H]1CC[C@H](C(=O)N2CC[C@@H](n3cc(-c4cc(OC)c5c(C#N)cnn5c4)cn3)C2)CC1               F
11  C=CC(=O)N1CC(OC)(C(=O)N2CCC(n3nc(C)c(-c4cc(OC)c5c(C#N)cnn5c4)c3C)CC2)C1               F
12  C=CC(=O)N1CC2CC(C1)N2C(=O)N1CCC(n2cc(-c3cc(OC)c4c(C#N)cnn4c3)cn2)CC1               T
13  C=CC(=O)N1CC(F)(C(=O)N2CCN(c3cc(C)c(-c4cc(OC)c5c(C#N)cnn5c4)cn3)CC2)C1               F
14  C=CC(=O)N1CC(OC)(C(=O)N2CCC(n3cc(-c4cc(OC)c5c(Cl)cnn5c4)cn3)CC2)C1               F
15  C=CC(=O)N1CC(CN2CCC(n3ncc(-c4cc(OC)c5c(C#N)cnn5c4)c3C)CC2)(OC)C1               F
16  C=CC(=O)N1CC(C(=O)N2CCC(n3cc(-c4cc(OC)c5c(C#N)cnn5c4)cn3)CC2)C1               T
17  C=CC(=O)N1CC(C)(CN2CCC(n3ncc(-c4cc(OC)c5c(C#N)cnn5c4)c3C)CC2)C1               F
18  COc1cc(-c2cnn(C3CCN(C(=O)C4(OC)CN(C(=O)/C=C/CN(C)C)C4)CC3)c2C)cn2ncc(Cl)c12               F
19  C=CC(=O)N1CCC(C(=O)N2CCC(n3ncc(-c4cc(OC)c5c(C#N)cnn5c4)c3C)CC2)CC1               F
20  C=CC(=O)N[C@H]1C[C@@H](C(=O)N2CC[C@@H](n3cc(-c4cc(OC)c5c(C#N)cnn5c4)cn3)C2)C1               F
21  C=CC(=O)N1CC(C(=O)N2CCN(c3ccc(-c4cc(OC)c5c(C#N)cnn5c4)cn3)CC2)C1               T
22  C=CC(=O)N1CC[C@H](C(=O)N2CCC(n3cc(-c4cc(OC)c5c(C#N)cnn5c4)cn3)CC2)C1               T
23  C=CC(=O)N1C2CC1CN(C(=O)N1CCC(n3cc(-c4cc(OC)c5c(C#N)cnn5c4)cn3)CC1)C2               T
24  C=CC(=O)N1CC(CN2CCC(n3ncc(-c4cc(OC)c5c(Cl)cnn5c4)c3C)CC2)(OC)C1               F
25  C=CC(=O)N1CCN(c2cccc(-n3cc(-c4cc(OC)c5c(C#N)cnn5c4)cn3)c2)CC1               F
26  C=CS(=O)(=O)N[C@@H]1CC[C@H](C(=O)N2CCC(n3cc(-c4cc(OC)c5c(C#N)cnn5c4)cn3)CC2)C1               T
27  C=CC(=O)N1CC(C(=O)N2C[C@H]3C[C@@H]2CN3c2ccc(-c3cc(OC)c4c(C#N)cnn4c3)cn2)C1               F
